system: HaCat; test: Cytotoxic Profiling of Annotated Libraries Using Quantitative High-Throughput Screening (AID 1296008); details: Five cell lines viability, CellTiter-Glo ATP luminescence, 48-72 h; note: nearly all actives have a fitted effect of over 60% in size
Results filed as inconclusive are left out. Activity calls are given as the source filed them. Calls come from the whole dose curve; as a rule, active = well fitted inhibition curve with a large enough effect; inconclusive = small, poorly fitted or top-dose-only effect; inactive = flat fitted curve, though single readings scatter.
Log the outcome using a class from yes (1) for active, no (0) for inactive

Task: Give the logged outcome of this assay for the following compound: O=C1NC(=O)[C@@H](c2cn3c4c(cccc24)CCC3)[C@H]1c1c[nH]c2ccccc12
Output: no (0)

Task: Hi, do you know how Cn1cc(C2=C(c3c4n(c5ccccc35)CCC(CN)C4)C(=O)NC2=O)c2ccccc21 (configuration not stated) came out in this test?
Output: yes (1)

Task: Hi team, can someone confirm the assay call for N#Cc1cc(NC(=O)Nc2nnc(-c3ccncc3)s2)ccc1-c1cn[nH]c1 ?
Output: no (0)

Task: Assay result, entry O=c1c(O)c(-c2ccc(O)c(O)c2)oc2cc(O)ccc12 — outcome?
Output: no (0)

Task: GET /call?item= NC(=O)N1CCC(CC(=O)N2CCC([C@H]3c4ncc(Br)cc4CCc4cc(Cl)cc(Br)c43)CC2)CC1 returns the recorded outcome of this test.
Output: yes (1)

Task: I would be grateful if you could indicate the recorded call for O=C(O)C[C@H](O)C[C@H](O)C=Cc1c(C2CC2)nc2ccccc2c1-c1ccc(F)cc1 .
Output: yes (1)

Task: Outcome logged for COc1cccc2c1C(=O)c1c(O)c3c(c(O)c1C2=O)C[C@@](O)(C(=O)CO)C[C@H]3O[C@H]1C[C@H](N)[C@H](O)[C@H](C)O1 in this assay:
Output: yes (1)

---

Tested on: JEG-3
Test: Primary qHTS to identify gynecologic anti-cancer compounds using libraries of approved drugs and bioactive compounds (AID 1345084); note: nearly all actives have a fitted effect of over 55% in size
Conditions: Gynecologic cancer cell panel viability, ATPlite luminescence, 48 h; series mostly up to 57.5 µM
Source text: National Center for Advancing Translational Sciences [NCATS] Assay Overview: Chemotherapeutic drug responses vary from cancer to cancer and from patient to patient. […] ATPlite is a luminescence based assay reliant on the conversion of a luciferase substrate to light in the presence of ATP. As a cytotoxic compound will suppress growth and decrease the number of cells, the concentration of ATP will decrease, and less light signal will be detected in the well. […]
Results filed as inconclusive are left out. Calls of active or inactive are those of the source. The call rests on the fitted dose curve; in most records, active means well fitted cell-killing curve with a large enough effect; inconclusive means small, poorly fitted or top-dose-only effect, or effect the other way; inactive means flat fitted curve, though single readings scatter.
Your response should consist of one outcome taken from T = active, F = inactive

1) COc1ccc(S(=O)(=O)Nc2cccnc2Nc2ccc(O)cc2)cc1 :: T
2) CCCCOc1ccc(C(=O)Nc2ccc(F)cc2F)cc1 :: F
3) Cc1ncc(-c2ccnc(Nc3ccc(S(C)(=O)=O)cc3)n2)n1C(C)C :: F
4) Cc1cnc(Nc2ccc(CN3CCOCC3)cc2)nc1Nc1cccc(S(=O)(=O)NC(C)(C)C)c1 :: T

Task: Assay outcome for CC(C)c1cc(C(C)C)c(CC(=O)NS(=O)(=O)Oc2c(C(C)C)cccc2C(C)C)c(C(C)C)c1 : what was it?
Output: F

---

experiment: High-throughput drug toxicity screening in the BPDCN cell line Cal-1 (AID 1224825); details: Cal-1 BPDCN cell viability, qHTS; at 45.8 µM (top of the series) unless noted;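 note: cells exposed to compounds for 48 h; 100% = DMSO and 0% = bortezomib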
In this section we review reported viability (% of control) values for a set of molecules.

1. N#Cc1ccc(COC[C@H]2O[C@@H](n3c(NCc4ccc(Cl)c(Cl)c4)nc4c(N)ncnc43)[C@@H](O)[C@@H]2O)cc1 :: 3.42%
2. COc1cc(OC)c(NC(=O)Nc2cc(C)on2)cc1Cl :: 80.9%
3. CNC(=O)c1ccc(Nc2cc(Nc3ccccc3S(=O)(=O)C(C)C)c3cc[nH]c3n2)nc1 :: 3.36%
4. O=C(CN1C(=O)C2(CCCC2)NC[C@H]1c1cc(F)cc(F)c1)Nc1ccc2c(c1)C[C@@]1(C2)C(=O)Nc2ncccc21 :: 107%
5. N[C@H]1CN(c2c(F)cc3c(=O)c(C(=O)O)cn(C4C[C@@H]4F)c3c2Cl)CC12CC2 (some centres undefined) :: 92.9%
6. Nc1ncn([C@@H]2O[C@H](CO)[C@@H](O)[C@@H]2O)c(=O)n1 :: 5.42%

Task: Please report the measured viability (% of control) for C[C@@H](NCc1cc2ccccc2[nH]1)c1cccc2ccccc12
Output: 108%

Task: Given the molecule CC(C)N1[N]C(=C2C=c3cc(O)ccc3=N2)c2c(N)ncnc21 , write its reported viability (% of control).
Output: 2.77%

Task: Quick one: give measured viability (% of control) for Nc1nc2c(c(=O)[nH]1)N(C=O)[C@H](CNc1ccc(C(=O)N[C@@H](CCC(=O)O)C(=O)O)cc1)CN2
Output: 92.1%
